Assay method text: Competitive ELISA, relative CTS specificity, DIG as competitor
Type: binding
Test settings: competition with immobilized MBG-BSA; normalized to MBG = 100%
Assay metric: Rel. CTS Specificity as % of MBG Binding: DIG (%)
// note: answer is a bare numeric in %

Incoming: Tell me Rel. CTS Specificity as % of MBG Binding: DIG reported for 205/207: human anti-MBG antibody, VH SEQ ID NO: 53, VL SEQ ID NO: 54 (antibody, listed as Homo sapiens, V domains shown) VH: QLQLQESGPGLVKPSETLSLTCTVSGGSISSSSYYWGWIRQPPGKGLEWIGSIYYSGSTYYNPSLKSRVTISVDTSKNQFSLKLSSVTAADTAVYYCARFHTWAPRAFDIWGQGTMVTVSS VL: QSVVTQPPSVSAAPGQEVTISCSGSSSNIGNNYVSWYQQLPGTAPKLLIYDNNKRPSGIPDRFSGSKSGTSATLGITGLQTGDEADYYCGTWDSSLSALFGGGTKLTVL
Outgoing: 0
